Would you kindly list apparent Kd (screen) for each of these binders?
Target or system: T1, TNFR1 (Homo sapiens, UniProt P19438)
T1 chain: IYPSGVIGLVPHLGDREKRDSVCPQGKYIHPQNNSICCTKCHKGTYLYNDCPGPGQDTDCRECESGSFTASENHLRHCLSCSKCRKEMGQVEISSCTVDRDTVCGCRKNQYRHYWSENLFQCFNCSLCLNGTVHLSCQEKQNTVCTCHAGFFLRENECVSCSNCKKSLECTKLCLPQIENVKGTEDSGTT
Method notes: yeast display SC50

// known answers, use as guide
Binder	apparent Kd (screen)
Y70M (designed binder) SMEEEVEKAAKEYEKKKKEAIEKHLEKLKAKDKEAAERFLKELEEAAKEYAKDEAKTMSEEEAKRRAKKMKEKVLLSELSEEEQKEIKEAEEKLVRTILKYVEEAAK	6.43 nM
E82R (designed binder) SMEEEVEKAAKEYEKKKKEAIEKHLEKLKAKDKEAAERFLKELEEAAKEYAKDEAKTMSEEEAKRRAKKYKEKVLLSELSEREQKEIKEAEEKLVRTILKYVEEAAK	0.405 nM
S1L (designed binder) LMEEEVEKAAKEYEKKKKEAIEKHLEKLKAKDKEAAERFLKELEEAAKEYAKDEAKTMSEEEAKRRAKKYKEKVLLSELSEEEQKEIKEAEEKLVRTILKYVEEAAK	1.4 nM
D53G (designed binder) SMEEEVEKAAKEYEKKKKEAIEKHLEKLKAKDKEAAERFLKELEEAAKEYAKGEAKTMSEEEAKRRAKKYKEKVLLSELSEEEQKEIKEAEEKLVRTILKYVEEAAK	12.5 nM

Count: 4. Required value per item: apparent Kd (screen).
1. K71W (designed binder) SMEEEVEKAAKEYEKKKKEAIEKHLEKLKAKDKEAAERFLKELEEAAKEYAKDEAKTMSEEEAKRRAKKYWEKVLLSELSEEEQKEIKEAEEKLVRTILKYVEEAAK
2. S80K (designed binder) SMEEEVEKAAKEYEKKKKEAIEKHLEKLKAKDKEAAERFLKELEEAAKEYAKDEAKTMSEEEAKRRAKKYKEKVLLSELKEEEQKEIKEAEEKLVRTILKYVEEAAK
3. S59H (designed binder) SMEEEVEKAAKEYEKKKKEAIEKHLEKLKAKDKEAAERFLKELEEAAKEYAKDEAKTMHEEEAKRRAKKYKEKVLLSELSEEEQKEIKEAEEKLVRTILKYVEEAAK
4. L40K (designed binder) SMEEEVEKAAKEYEKKKKEAIEKHLEKLKAKDKEAAERFKKELEEAAKEYAKDEAKTMSEEEAKRRAKKYKEKVLLSELSEEEQKEIKEAEEKLVRTILKYVEEAAK

[out]
4.39 nM
1.54 nM
0.593 nM
0.446 nM
